Test system: A. baumannii ATCC 17961
Type: cell-based, Acinetobacter baumannii
assay-conditions: ATCC 17961, 18 h
Bridge positions count the residues as written; N and C are the ends. Square brackets hold non-standard residues; d marks the D form. Peptide text beside a SMILES is read from it. * marks the point of attachment. ξ: configuration not given here. Hexanoyl(4ξ-Me) = CCC(C)CCC(=O)*; Myristoyl = CCCCCCCCCCCCCC(=O)*; dOrn = NCCC[C@@H](N)C(=O)O; Octanoyl = CCCCCCCC(=O)*; Orn = NCCC[C@H](N)C(=O)O
experimental-endpoint: Antimicrobial activity (MIC) A. baumannii ATCC 17961 (µg/mL)
Numbers only, in µg/mL.

As a guide, the following entries are already answered.
compound	unit-tag	observed-value
CCCCCCCC(=O)N[C@H](CO)C(=O)N[C@H](Cc1ccc(O)cc1)C(=O)N[C@H](Cc1c[nH]c2ccccc12)C(=O)N[C@H](CCCN)C(=O)N[C@@H](CCCN)C(=O)NCC(=O)N[C@H](CCCN)C(=O)N[C@@H](Cc1c[nH]c2ccccc12)C(=O)N[C@@H]1C(=O)N[C@@H]([C@@H](C)CC)C(=O)N[C@@H](CC(N)=O)C(=O)NCC(=O)NCC(=O)O[C@@H]1C [Compound 22] (Octanoyl-[dS][dY][dW][dOrn][Orn]G[dOrn]WTINGG; ester 9-C)	µg/mL	4
CCC(C)CCC(=O)N[C@H](CC(N)=O)C(=O)N[C@H](Cc1ccc(O)cc1)C(=O)N[C@H](Cc1c[nH]c2ccccc12)C(=O)N[C@H](CCCN)C(=O)N[C@@H](CCCN)C(=O)NCC(=O)N[C@H](CCCN)C(=O)N[C@@H](Cc1c[nH]c2ccccc12)C(=O)N[C@@H]1C(=O)N[C@@H]([C@@H](C)CC)C(=O)NCC(=O)N[C@@H](CO)C(=O)O[C@@H]1C (stereo partly shown) [Compound 1, brevicidine] ({Hexanoyl(4ξ-Me)}-[dN][dY][dW][dOrn][Orn]G[dOrn]WTIGS; ester 9-C)	µg/mL	4

Now, please, on to the next compound.
Requested read-out: Antimicrobial activity (MIC) A. baumannii ATCC 17961. Entry: CCCCCCCCCCCCCC(=O)N[C@H](CO)C(=O)N[C@H](Cc1ccc(O)cc1)C(=O)N[C@H](Cc1c[nH]c2ccccc12)C(=O)N[C@H](CCCN)C(=O)N[C@@H](CCCN)C(=O)NCC(=O)N[C@H](CCCN)C(=O)N[C@@H](Cc1c[nH]c2ccccc12)C(=O)N[C@@H]1C(=O)N[C@@H]([C@@H](C)CC)C(=O)N[C@@H](CC(N)=O)C(=O)NCC(=O)NCC(=O)O[C@@H]1C [Compound 25] (Myristoyl-[dS][dY][dW][dOrn][Orn]G[dOrn]WTINGG; ester 9-C) 2

====

Please respond with reported Antimicrobial activity (MIC) S. aureus USA300 for every item in the list.
Test system: S. aureus USA300
Format: cell-based, Staphylococcus aureus
assay-conditions: USA300, 18 h
Bridge positions count the residues as written; N and C are the ends. Square brackets hold non-standard residues; d marks the D form. Peptide text beside a SMILES is read from it. * marks the point of attachment. Palmitoyl = CCCCCCCCCCCCCCCC(=O)*; Decanoyl = CCCCCCCCCC(=O)*; dOrn = NCCC[C@@H](N)C(=O)O; Orn = NCCC[C@H](N)C(=O)O
Answers are plain numbers, in µg/mL.

compound	observed-value
CCCCCCCCCCCCCCCC(=O)N[C@H](CO)C(=O)N[C@H](Cc1ccc(O)cc1)C(=O)N[C@H](Cc1c[nH]c2ccccc12)C(=O)N[C@H](CCCN)C(=O)N[C@@H](CCCN)C(=O)NCC(=O)N[C@H](CCCN)C(=O)N[C@@H](Cc1c[nH]c2ccccc12)C(=O)N[C@@H]1C(=O)N[C@@H]([C@@H](C)CC)C(=O)N[C@@H](CC(N)=O)C(=O)NCC(=O)NCC(=O)O[C@@H]1C [Compound 26] (Palmitoyl-[dS][dY][dW][dOrn][Orn]G[dOrn]WTINGG; ester 9-C)	32

# query: Antimicrobial activity (MIC) S. aureus USA300 | item CCCCCCCCCC(=O)N[C@H](CC(N)=O)C(=O)N[C@H](Cc1ccc(O)cc1)C(=O)N[C@H](Cc1c[nH]c2ccccc12)C(=O)N[C@H](CCCN)C(=O)N[C@@H](CCCN)C(=O)NCC(=O)N[C@H](CCCN)C(=O)N[C@@H](Cc1c[nH]c2ccccc12)C(=O)N[C@@H]1C(=O)N[C@@H]([C@@H](C)CC)C(=O)NCC(=O)N[C@@H](CO)C(=O)O[C@@H]1C [Compound 14] (Decanoyl-[dN][dY][dW][dOrn][Orn]G[dOrn]WTIGS; ester 9-C) | system: S. aureus USA300 32

====

Please respond with reported Antimicrobial activity (MIC) P. aeruginosa PAO1 for every item in the list.
Tested on: P. aeruginosa PAO1
Format: cell-based, Pseudomonas aeruginosa
assay-conditions: PAO1, 18 h
Bridge positions count the residues as written; N and C are the ends. Square brackets hold non-standard residues; d marks the D form. Peptide text beside a SMILES is read from it. * marks the point of attachment. Decanoyl = CCCCCCCCCC(=O)*; dOrn = NCCC[C@@H](N)C(=O)O; Octanoyl = CCCCCCCC(=O)*; Orn = NCCC[C@H](N)C(=O)O; Butyryl = CCCC(=O)*
One number for each entry, in µg/mL.

As a guide, the following entries are already answered.
compound	unit-tag	observed-value
CCCC(=O)N[C@H](CC(N)=O)C(=O)N[C@H](Cc1ccc(O)cc1)C(=O)N[C@H](Cc1c[nH]c2ccccc12)C(=O)N[C@H](CCCN)C(=O)N[C@@H](CCCN)C(=O)NCC(=O)N[C@H](CCCN)C(=O)N[C@@H](Cc1c[nH]c2ccccc12)C(=O)N[C@@H]1C(=O)N[C@@H]([C@@H](C)CC)C(=O)NCC(=O)N[C@@H](CO)C(=O)O[C@@H]1C [Compound 11] (Butyryl-[dN][dY][dW][dOrn][Orn]G[dOrn]WTIGS; ester 9-C)	µg/mL	16
CCCCCCCCCC(=O)N[C@H](CO)C(=O)N[C@H](Cc1ccc(O)cc1)C(=O)N[C@H](Cc1c[nH]c2ccccc12)C(=O)N[C@H](CCCN)C(=O)N[C@@H](CCCN)C(=O)NCC(=O)N[C@H](CCCN)C(=O)N[C@@H](Cc1c[nH]c2ccccc12)C(=O)N[C@@H]1C(=O)N[C@@H]([C@@H](C)CC)C(=O)N[C@@H](CC(N)=O)C(=O)NCC(=O)NCC(=O)O[C@@H]1C [Compound 23] (Decanoyl-[dS][dY][dW][dOrn][Orn]G[dOrn]WTINGG; ester 9-C)	µg/mL	2
CC[C@H](C)[C@@H]1NC(=O)[C@@H](NC(=O)[C@H](Cc2c[nH]c3ccccc23)NC(=O)[C@@H](CCCN)NC(=O)CNC(=O)[C@H](CCCN)NC(=O)[C@@H](CCCN)NC(=O)[C@@H](Cc2c[nH]c3ccccc23)NC(=O)[C@@H](Cc2ccc(O)cc2)NC(=O)[C@H](N)CC(N)=O)[C@@H](C)OC(=O)[C@H](CO)NC(=O)CNC1=O	µg/mL	16
CCCCCCCC(=O)N[C@H](CC(N)=O)C(=O)N[C@H](Cc1ccc(O)cc1)C(=O)N[C@H](Cc1c[nH]c2ccccc12)C(=O)N[C@H](CCCN)C(=O)N[C@@H](CCCN)C(=O)NCC(=O)N[C@H](CCCN)C(=O)N[C@@H](Cc1c[nH]c2ccccc12)C(=O)N[C@@H]1C(=O)N[C@@H]([C@@H](C)CC)C(=O)NCC(=O)N[C@@H](CO)C(=O)O[C@@H]1C [Compound 13] (Octanoyl-[dN][dY][dW][dOrn][Orn]G[dOrn]WTIGS; ester 9-C)	µg/mL	8
CCCCCCCCCC(=O)N[C@H](CC(N)=O)C(=O)N[C@H](Cc1ccc(O)cc1)C(=O)N[C@H](Cc1c[nH]c2ccccc12)C(=O)N[C@H](CCCN)C(=O)N[C@@H](CCCN)C(=O)NCC(=O)N[C@H](CCCN)C(=O)N[C@@H](Cc1c[nH]c2ccccc12)C(=O)N[C@@H]1C(=O)N[C@@H]([C@@H](C)CC)C(=O)NCC(=O)N[C@@H](CO)C(=O)O[C@@H]1C [Compound 14] (Decanoyl-[dN][dY][dW][dOrn][Orn]G[dOrn]WTIGS; ester 9-C)	µg/mL	8

Now, please, on to the next compound.
Requested read-out: Antimicrobial activity (MIC) P. aeruginosa PAO1. Entry: CCCCCCCC(=O)N[C@H](CO)C(=O)N[C@H](Cc1ccc(O)cc1)C(=O)N[C@H](Cc1c[nH]c2ccccc12)C(=O)N[C@H](CCCN)C(=O)N[C@@H](CCCN)C(=O)NCC(=O)N[C@H](CCCN)C(=O)N[C@@H](Cc1c[nH]c2ccccc12)C(=O)N[C@@H]1C(=O)N[C@@H]([C@@H](C)CC)C(=O)N[C@@H](CC(N)=O)C(=O)NCC(=O)NCC(=O)O[C@@H]1C [Compound 22] (Octanoyl-[dS][dY][dW][dOrn][Orn]G[dOrn]WTINGG; ester 9-C) 2
